tested on: COLO 205 colon; experiment: NCI tumour cell line growth inhibition, 48 h
# TGI per record follows

compound: CCN(CC)C(=C(C(Cl)=C(Cl)Cl)[N+](=O)[O-])N(CC)CC
TGI: > 100 µM

compound: COc1ccc2cc(CNCCCCCCCCCCCCNCc3ccc4cc(OC)ccc4c3)ccc2c1
TGI: > 55.9 µM

compound: C[C@]12C[C@H](c3ccccc3)Nc3ccccc3N1C(c1ccccc1)=NO2
TGI: > 100 µM

compound: CCN(CC)CCC(=O)NC1c2ccc(Cl)cc2Oc2c(C)cccc21 (centres undefined)
TGI: 40.1 µM

###

// reported GI50 for each item listed
tested on: OVCAR-5 ovarian; assay: NCI tumour cell line growth inhibition, 48 h
result_type: GI50

compound: CC(C)c1ccc(C(=O)Nc2nc3ccc(O)cc3s2)cc1
readout_value: 7.68 µM

compound: COc1cc(OC)cc(C2CC(=O)Nc3c2c(C)nn3-c2nc3ccccc3[nH]2)c1 (stereo not given)
readout_value: 4.15 µM

compound: O=C(O[C@H]1CN[C@H](C#Cc2cc3ncnc(Nc4ccc5c(ccn5Cc5cc(F)ccc5F)c4)c3s2)C1)N1CCOCC1
readout_value: 1.07 µM

compound: O=C1Nc2ccc(C(=O)c3ccco3)cc2/C1=C/c1cc(Cl)c(O)c(Cl)c1
readout_value: 8.35 µM

compound: CCN(CC)CCCC(C)Nc1c2ccc(Cl)cc2nc2ccc(OC)cc12 (stereo not given)
readout_value: 2.34 µM
